- assay-method-text: Half life in Sprague-Dawley rat plasma at 1 mg/kg, iv
- Type: ADME, organism-based
property-measured: half-life (h)
The answer is to be given in h; state only the numeric part.

In: Given the entry `O=C(O)C1CN(Cc2ccc(OCc3ccc(Cl)c(Cl)c3)cc2)C1` , report its measured half-life.
Out: 9

----------
- assay-method-text: AUC in BALB/C mouse brain at 2 mg/kg, iv
- Format: ADME, organism-based
property-measured: AUC (ng·h/mL)
Kindly provide the numeric value in ng·h/mL only, without the unit symbol.

In: Look up AUC: `O=C(O)C1CN(Cc2ccc(OCc3ccc(Cl)c(Cl)c3)cc2)C1`
Out: 3200

The measurements presented in this section are drawn from ChEMBL document CHEMBL3739276.
